Data origin: patent US6071917A

target-desc: guinea-pig B2 receptor (Cavia porcellus, UniProt O70526)
Construct: Ileum segments are isolated from male guinea-pigs; tissue Iffa Credo, l'Arbresle, France (supplier of the animals); host or cells: ileum membranes of male Dunkin-Hartley guinea-pigs
Sequence (O70526 whole entry): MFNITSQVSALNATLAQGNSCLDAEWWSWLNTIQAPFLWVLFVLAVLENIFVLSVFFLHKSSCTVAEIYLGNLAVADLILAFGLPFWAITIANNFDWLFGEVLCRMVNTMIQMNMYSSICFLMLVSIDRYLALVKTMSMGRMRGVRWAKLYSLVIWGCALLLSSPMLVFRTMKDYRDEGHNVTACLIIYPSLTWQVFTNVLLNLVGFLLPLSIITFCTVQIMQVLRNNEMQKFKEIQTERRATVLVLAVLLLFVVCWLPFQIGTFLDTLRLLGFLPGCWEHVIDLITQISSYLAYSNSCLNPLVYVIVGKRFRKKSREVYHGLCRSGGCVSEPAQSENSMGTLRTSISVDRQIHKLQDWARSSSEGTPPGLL
measurement-protocol: [3H]-bradykinin binding to guinea-pig ileum membranes
experimental-conditions: test compound at 10^-6 M; [3H]-bradykinin 120 pM; 50 μg ileum membrane protein; 90 min at 20° C.; read-out: Activity (%): percentage inhibition of the binding of [3H]-bradykinin
Structures can show the parent of a compound that is named as a salt.
measured-quantity: inhibition at 1 µM (%)

molecule: Cc1ccc2cccc(OCc3c(Cl)ccc(S(=O)(=O)N4CCC[C@H]4C(=O)N4CCN(C(=O)Cc5ccc(C(=N)N)cc5)CC4)c3Cl)c2n1 [Example 20, dihydrochloride]
unit-descriptor: %
inhibition at 1 µM: 100

molecule: Cc1cc(C)c2cccc(OCc3c(Cl)ccc(S(=O)(=O)N4CCC[C@H]4C(=O)NCC4CCN(C(=O)COc5ccc(C(=N)N)cc5)CC4)c3Cl)c2n1 [Example 30, bis(methanesulfonate)]
unit-descriptor: %
inhibition at 1 µM: 99.3

molecule: Cc1ccc2cccc(OCc3c(Cl)ccc(S(=O)(=O)N4CCC[C@H]4C(=O)Nc4cccc(C(=N)N)c4)c3Cl)c2n1 [Example 10, dihydrochloride]
unit-descriptor: %
inhibition at 1 µM: 100

molecule: Cc1cc(C)c2cccc(OCc3c(Cl)ccc(S(=O)(=O)N4CCC[C@H]4C(=O)N4CCN(C(=O)c5ccc(C(=N)N)cc5)CC4)c3Cl)c2n1 [Example 12, dihydrochloride]
unit-descriptor: %
inhibition at 1 µM: 99.3

molecule: Cc1cc(C)c2cccc(OCc3c(Cl)ccc(S(=O)(=O)N4CCC[C@H]4C(=O)N(C)Cc4ccc(C(=N)N)cc4)c3Cl)c2n1 [Example 4, dihydrochloride]
unit-descriptor: %
inhibition at 1 µM: 97.8

molecule: Cc1cc(C)c2cccc(OCc3c(Cl)ccc(S(=O)(=O)N4CCC[C@H]4C(=O)N4CCN(C(=O)Cc5ccc(C(=N)N)cc5)CC4)c3Cl)c2n1 [Example 14, dihydrochloride]
unit-descriptor: %
inhibition at 1 µM: 100

molecule: Cc1ccc2cccc(OCc3c(Cl)ccc(S(=O)(=O)N4CCC[C@H]4C(=O)NC4CCN(C(=O)c5ccc(C(=N)N)cc5)CC4)c3Cl)c2n1 [Example 24]
unit-descriptor: %
inhibition at 1 µM: 98.9

molecule: Cc1cc(C)c2cccc(OCc3c(Cl)ccc(S(=O)(=O)N4CCC[C@H]4C(=O)NCc4cccc(C(=N)N)c4)c3Cl)c2n1 [Example 2, dihydrochloride]
unit-descriptor: %
inhibition at 1 µM: 100

molecule: Cc1cc(C)c2cccc(OCc3c(Cl)ccc(S(=O)(=O)N4CCC[C@H]4C(=O)NCc4ccc(C(=N)N)cc4)c3Cl)c2n1 [Example 6, bis(methanesulfonate)]
unit-descriptor: %
inhibition at 1 µM: 100

molecule: Cc1ccc2cccc(OCc3c(Cl)ccc(S(=O)(=O)N4CCC[C@H]4C(=O)N4CCN(C(=O)COc5ccc(C(=N)N)cc5)CC4)c3Cl)c2n1 [Example 22, dihydrochloride]
unit-descriptor: %
inhibition at 1 µM: 100

molecule: Cc1ccc2cccc(OCc3c(Cl)ccc(S(=O)(=O)N4CCC[C@H]4C(=O)N4CCN(C(=O)c5ccc(C(=N)N)cc5)CC4)c3Cl)c2n1 [Example 18, dihydrochloride]
unit-descriptor: %
inhibition at 1 µM: 100
